Target: T1, full-length human Tau (Tau441; 2N4R), recombinant (human, UniProt P10636 1-758)
T1 construct: made in E. coli, His6-Smt3 tag removed; biotinylated through amines for Octet and phage work; also called r-Tau; recombinant Tau
T1 sequence (P10636 other isoform, or with tags, fused parts or gaps limits assumed): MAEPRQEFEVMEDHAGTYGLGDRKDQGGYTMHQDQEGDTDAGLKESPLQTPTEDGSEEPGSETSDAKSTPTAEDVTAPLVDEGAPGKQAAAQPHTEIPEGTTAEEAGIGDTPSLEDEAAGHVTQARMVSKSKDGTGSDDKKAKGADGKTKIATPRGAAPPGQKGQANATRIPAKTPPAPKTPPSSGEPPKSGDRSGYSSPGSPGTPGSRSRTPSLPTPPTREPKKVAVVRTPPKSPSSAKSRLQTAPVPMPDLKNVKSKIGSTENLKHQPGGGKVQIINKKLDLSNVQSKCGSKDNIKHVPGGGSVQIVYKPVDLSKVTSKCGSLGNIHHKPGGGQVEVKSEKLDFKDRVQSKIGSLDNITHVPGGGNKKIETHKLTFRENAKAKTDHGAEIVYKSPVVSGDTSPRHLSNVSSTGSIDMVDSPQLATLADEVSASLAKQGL
Test: SPR Biacore
Decision: kon beneath 300000 M⁻¹ s⁻¹ gives true (1); kon meeting or exceeding 300000 M⁻¹ s⁻¹ gives false (0).

Regarding Clone with L1_7 (antibody, V domains shown, based on hu1C7.v2) VH: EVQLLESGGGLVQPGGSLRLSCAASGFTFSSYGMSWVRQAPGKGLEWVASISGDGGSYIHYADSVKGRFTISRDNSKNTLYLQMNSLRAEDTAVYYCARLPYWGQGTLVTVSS VL: DIVMTQSPDSLAVSLGERATINCKSSQSLLNAGNQKNYLTWYQQKPGQPPKLLIYWASTRESGVPDRFSGSGSGTDFTLTISSLQAEDVAVYYCQQYNSYPLTFGQGTKVEIKR , kindly confirm whether its kon is beneath 300000 M⁻¹ s⁻¹.
false (0)

Regarding Clone with H1_2-1 (antibody, V domains shown, based on hu1C7.v2) VH: EVQLLESGGGLVQPGGSLRLSCAASGFTFSSVGTSWVRQAPGKGLEWVASISGDGGSYIHYADSVKGRFTISRDNSKNTLYLQMNSLRAEDTAVYYCARLPYWGQGTLVTVSS VL: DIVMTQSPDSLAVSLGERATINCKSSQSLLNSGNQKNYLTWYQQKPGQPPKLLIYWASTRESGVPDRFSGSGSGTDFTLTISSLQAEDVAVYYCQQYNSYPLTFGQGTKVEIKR , kindly confirm whether its kon is beneath 300000 M⁻¹ s⁻¹.
true (1)

Regarding Clone with H2_4 (antibody, V domains shown, based on hu1C7.v2) VH: EVQLLESGGGLVQPGGSLRLSCAASGFTFSSYGMSWVRQAPGKGLEWVASISGDAGSYIHYADSVKGRFTISRDNSKNTLYLQMNSLRAEDTAVYYCARLPYWGQGTLVTVSS VL: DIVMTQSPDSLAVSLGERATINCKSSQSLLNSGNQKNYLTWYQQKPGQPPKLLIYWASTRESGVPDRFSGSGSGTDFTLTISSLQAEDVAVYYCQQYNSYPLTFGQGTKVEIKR , kindly confirm whether its kon is beneath 300000 M⁻¹ s⁻¹.
false (0)

Regarding Clone with L1_3-2 (antibody, V domains shown, based on hu1C7.v2) VH: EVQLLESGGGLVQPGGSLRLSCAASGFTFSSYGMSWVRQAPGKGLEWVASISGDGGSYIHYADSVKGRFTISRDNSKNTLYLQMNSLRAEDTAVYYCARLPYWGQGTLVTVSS VL: DIVMTQSPDSLAVSLGERATINCKSSQSLLRSGTQKDYLVWYQQKPGQPPKLLIYWASTRESGVPDRFSGSGSGTDFTLTISSLQAEDVAVYYCQQYNSYPLTFGQGTKVEIK , kindly confirm whether its kon is beneath 300000 M⁻¹ s⁻¹.
false (0)

Regarding Clone with H1_4-4 (antibody, V domains shown, based on hu1C7.v2) VH: EVQLLESGGGLVQPGGSLRLSCAASGFRFSSPGMSWVRQAPGKGLEWVASISGDGGSYIHYADSVKGRFTISRDNSKNTLYLQMNSLRAEDTAVYYCARLPYWGQGTLVTVSS VL: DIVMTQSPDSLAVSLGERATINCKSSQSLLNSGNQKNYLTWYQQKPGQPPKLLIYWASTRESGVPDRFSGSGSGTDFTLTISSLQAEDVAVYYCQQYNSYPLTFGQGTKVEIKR , kindly confirm whether its kon is beneath 300000 M⁻¹ s⁻¹.
false (0)

Regarding Clone with L1_3-11 (antibody, V domains shown, based on hu1C7.v2) VH: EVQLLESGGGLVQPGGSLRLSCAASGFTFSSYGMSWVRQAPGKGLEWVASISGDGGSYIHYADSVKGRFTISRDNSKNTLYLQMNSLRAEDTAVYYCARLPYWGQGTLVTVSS VL: DIVMTQSPDSLAVSLGERATINCKSSQSLHRSGTQKDYLAWYQQKPGQPPKLLIYWASTRESGVPDRFSGSGSGTDFTLTISSLQAEDVAVYYCQQYNSYPLTFGQGTKVEIK , kindly confirm whether its kon is beneath 300000 M⁻¹ s⁻¹.
false (0)

Regarding Clone with H1_2-4 (antibody, V domains shown, based on hu1C7.v2) VH: EVQLLESGGGLVQPGGSLRLSCAASGFTFSLVGTSWVRQAPGKGLEWVASISGDGGSYIHYADSVKGRFTISRDNSKNTLYLQMNSLRAEDTAVYYCARLPYWGQGTLVTVSS VL: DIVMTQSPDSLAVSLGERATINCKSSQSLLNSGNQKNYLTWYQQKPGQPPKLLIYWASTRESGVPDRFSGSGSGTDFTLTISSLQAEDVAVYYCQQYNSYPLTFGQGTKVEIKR , kindly confirm whether its kon is beneath 300000 M⁻¹ s⁻¹.
true (1)

Regarding Clone with H1_4-5 (antibody, V domains shown, based on hu1C7.v2) VH: EVQLLESGGGLVQPGGSLRLSCAASGFRFSGYGMSWVRQAPGKGLEWVASISGDGGSYIHYADSVKGRFTISRDNSKNTLYLQMNSLRAEDTAVYYCARLPYWGQGTLVTVSS VL: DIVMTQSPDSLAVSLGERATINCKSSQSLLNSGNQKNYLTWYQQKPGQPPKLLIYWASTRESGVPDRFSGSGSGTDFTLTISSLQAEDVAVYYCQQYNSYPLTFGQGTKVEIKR , kindly confirm whether its kon is beneath 300000 M⁻¹ s⁻¹.
true (1)

Regarding Clone with L1_5 (antibody, V domains shown, based on hu1C7.v2) VH: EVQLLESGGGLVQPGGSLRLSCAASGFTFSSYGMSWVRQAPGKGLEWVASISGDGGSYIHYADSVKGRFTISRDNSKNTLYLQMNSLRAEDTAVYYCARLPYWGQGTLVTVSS VL: DIVMTQSPDSLAVSLGERATINCKSSQSLLSSGNQKNYLTWYQQKPGQPPKLLIYWASTRESGVPDRFSGSGSGTDFTLTISSLQAEDVAVYYCQQYNSYPLTFGQGTKVEIKR , kindly confirm whether its kon is beneath 300000 M⁻¹ s⁻¹.
false (0)
